Numbers sourced from ChEMBL document CHEMBL1201862.

System: U-251
Assay: NCI tumour cell line growth inhibition, 48 h
Activity calls are given as the source filed them. No stated cut-off is given here; in the data, active = GI50 up to about 1.1 µM and inactive = higher.
readout type: GI50

Some entries whose results are on file:
CCCNC(=O)c1cc(NC(=O)c2cc(NC(=O)/C=C/c3ccccc3)c(OC)c(OC)c2)c(OC)c(OC)c1 : 4.11 µM (inactive)
Nc1ccc(CCN2CCN(c3cccc(C(F)(F)F)c3)CC2)cc1 : 91.2 µM (inactive)
O=C(NC1(C(=O)O)CC1c1ccccc1)c1ccccc1 (stereo not given) : > 100 µM (inactive)
CC1=NN(C(=O)c2ccc(C)cc2)C(=O)C1/N=N/c1ccccc1C(=O)O (stereo not given) : 85.7 µM (inactive)

Proceeding to the next compound to report its GI50.
GI50 of O=C(CC1C(=O)Nc2ccccc2[S+]1[O-])Nc1cccc(Cl)c1 (stereo not given) , assay on U-251, is 33.7 µM (inactive)

---

System: BT-549
Assay: NCI tumour cell line growth inhibition, 48 h
Active and inactive are the calls of the source. Cut-off read from the data, not from the text of the source: active = GI50 up to about 1.1 µM and inactive = higher.
readout type: GI50

Some entries whose results are on file:
CC(C)CC(N)C(=O)O (stereo not given) : > 100 µM (inactive)
O=C(CC1C(=O)Nc2ccccc2[S+]1[O-])Nc1cccc(Cl)c1 (stereo not given) : 26.3 µM (inactive)
C=C(C)[C@@H]1CCC2=C[C@@H](OC2=O)[C@@H](C(=C)C)C2=CC(C(=O)O)=C(C1)O2 : > 100 µM (inactive)
CCOP(=O)(OCC)/C(=C\N1C(=O)CC(=O)NC1=S)C(=O)OC : > 100 µM (inactive)

GI50 of COc1ccc2c3c([nH]c2c1)[C@H](C=C(C)C)N1C(=O)[C@@H]2CCCN2C(=O)[C@@H]1C3 [FUMITREMORGIN] , assay on BT-549, is > 100 µM (inactive)

---

System: RPMI-8226
Test: NCI tumour cell line growth inhibition, 48 h
Active and inactive are the calls of the source. Rule as the data show it: active = GI50 up to about 1.1 µM and inactive = higher.
Select the correct class. Options are active, inactive and nothing else.

Worked examples, 5 compounds total:
COc1ccc(Nc2c(C#N)c3n(c4ccccc24)c2ccccc2[n+]3C)cc1OC : inactive
O=C1C(Cl)N(c2ccc(Cl)cc2)C1c1c[nH]c2ccccc12 (stereo unspecified) : inactive
COc1ccc(NC(=O)C2=CC(=O)c3ccc(O)cc3C2=O)c(OC)c1 : inactive
CCOP(=O)(OCC)C(Cc1ccccc1)N=C(c1ccccc1)c1ccccc1 (stereo unspecified) : inactive
C[C@H]1CCCCC[C@@H]2CC(=O)CC2C(=O)CCC(=O)O1 (stereo partly specified) : inactive

Q: Returns: the outcome recorded for SC1=NC2(CCCCCC2)NN1c1ccccc1 in this assay.
Result: active

Q: Returns: the outcome recorded for CCOC(=O)N1N(c2ccccc2)C(=O)C1(c1ccccc1)c1ccccc1 in this assay.
Result: inactive

Q: Returns: the outcome recorded for COc1ccccc1/C=C1\Sc2scc(-c3cccc([N+](=O)[O-])c3)[n+]2C1=O in this assay.
Result: inactive

Q: Returns: the outcome recorded for Cc1n[nH]c(=O)n1/N=C/c1ccc([N+](=O)[O-])o1 in this assay.
Result: inactive

Q: Returns: the outcome recorded for CCOC(=O)/C(=C/c1ccccc1)N(CC)CC in this assay.
Result: inactive

Q: Returns: the outcome recorded for COc1cc(C=C2C(=O)NC(=S)NC2=O)cc(OC)c1OC in this assay.
Result: inactive

---

Each entry below carries its reported GI50.
System: HOP-18
Experiment: NCI tumour cell line growth inhibition, 48 h
Activity calls are given as the source filed them. No stated cut-off is given here; in the data, active = GI50 up to about 1.1 µM and inactive = higher.

Some entries whose results are on file:
COc1ccc(/C=N/N=C(\N)NO)c(OC)c1C : 5.24 µM (inactive)
O=C1C(CO)=C[C@H](O)[C@H]2O[C@@H]12 : > 625 µM (inactive)
CCOC(=O)C1=C(Nc2ccccc2)SC/C1=N\NC(=O)Cc1ccccc1 : > 100 µM (inactive)
COc1ccc(NC(=O)C2=CC(=O)c3ccc(O)cc3C2=O)c(OC)c1 : > 100 µM (inactive)
OCC(O)COc1ccc(Br)cc1 (stereo not drawn) : > 100 µM (inactive)
O=C(CC1C(=O)c2ccccc2C1=C1C(=O)c2ccccc2C1=O)c1ccccc1 (stereo not drawn) : > 100 µM (inactive)
CCCCCCCCCCCCCCCc1ccc(OCC(O)CO)cc1 (stereo not drawn) : > 100 µM (inactive)
O=C(N/C(=C\c1ccc([N+](=O)[O-])cc1)c1nc2ccccc2s1)c1ccccc1 : 18.5 µM (inactive)
Cc1ccccc1C1SCc2nc3ccccc3n21 (stereo not drawn) : > 100 µM (inactive)
CCCCCCCCCCCCCC(=O)OC(/C=C/C(C)C)C(O)C(O)C(OC)C(=O)NC1CCCCN(C)C1=O (stereo not drawn) : 3.54 µM (inactive)

get_value(item= CC(C)(C)OC(=O)N[C@H]1CC(O)c2ccccc2N(CC(=O)O)C1=O (stereo partly drawn) , readout=GI50) returns > 100 µM (inactive)

get_value(item= CCOC(=O)c1nc(-c2ccccc2)oc1OCC , readout=GI50) returns > 100 µM (inactive)

---

Tested on: Malme-3M
Test: NCI tumour cell line growth inhibition, 48 h
Calls of active or inactive are those of the source. No stated cut-off is given here; in the data, active = GI50 up to about 1.1 µM and inactive = higher.
Select the correct class. Options are YES (active), NO (inactive) and nothing else.

Worked examples, 4 compounds total:
CC12CCCC(C(=O)O)(C1)[C@H](C(C)(C)C(=O)O)CC2 (stereo partly specified) : NO
N#Cc1sc2c(c1OC(=O)c1cccs1)c(=O)n(-c1ccccc1)c(=S)n2-c1ccccc1 : NO
C[C@]12CCC(=O)C=C1CC[C@@H]1[C@@H]2CC[C@]2(C)C(=O)/C(=C/c3ccncc3)C[C@@H]12 : NO
Cc1nnc(N/N=C(/C(=O)C(C#N)c2ccc(Cl)cc2)C(C#N)c2ccc(Cl)cc2)n1N (stereo unspecified) : NO

Q: Returns: the outcome recorded for CCOC(=O)c1c(CN2CCNCC2)nc2ccccc2c1-c1ccccc1 in this assay.
Result: NO

Q: Returns: the outcome recorded for COc1ccc2c(N=[N+]=[N-])c(-c3ccccc3)c(=O)oc2c1 in this assay.
Result: NO

Q: Returns: the outcome recorded for N#CC(C(=O)c1cccnc1Cl)c1nc2cc(C(F)(F)F)ccc2s1 (stereo unspecified) in this assay.
Result: NO

Q: Returns: the outcome recorded for COc1cc2c(c(OC)c1OC)-c1ccc(SC)c(=O)cc1[C@@H](NCc1cccc(C#N)c1)CC2 in this assay.
Result: YES

Q: Returns: the outcome recorded for COc1ccc2c(c1)[n+]([O-])c(C(=O)C/C(=N/OCCCc1ccccc1)C(=O)NC13CC4CC(CC(C4)C1)C3)c(C)[n+]2[O-] in this assay.
Result: NO

Q: Returns: the outcome recorded for C=C(C)[C@@H]1CCC2=C[C@@H](OC2=O)[C@@H](C(=C)C)C2=CC(C(=O)O)=C(C1)O2 in this assay.
Result: NO

Q: Returns: the outcome recorded for C1=CC2SSSC2C1 (stereo unspecified) in this assay.
Result: NO

---

Test system: HCT-116
Test: NCI tumour cell line growth inhibition, 48 h
Active and inactive are the calls of the source. Cut-off read from the data, not from the text of the source: active = GI50 up to about 1.1 µM and inactive = higher.
Select the correct class. Options are active, inactive and nothing else.

Worked examples, 5 compounds total:
CCCCc1ccc(N2C(=O)c3cc([N+](=O)[O-])cnc3S2(=O)=O)cc1 : inactive
CCOC(=O)C1(C(=O)OCC)OC(C)=NC1(C(=O)OC)C(=O)OC : inactive
Fc1cc(C2=C[C@H](c3ccc(Cl)cc3)NC(=S)N2)c(Cl)cc1Cl : inactive
CNNC1=NS(=O)(=O)c2cc(C)c(Cl)cc2S1 : inactive
COc1ccc(CC[N+]2(C)COc3cc4oc(=O)cc(C)c4cc3C2)cc1OC (configuration not stated) : inactive

Q: Returns: the outcome recorded for O=[N+]([O-])c1cc(Cl)ccc1S(=O)(=O)c1ccc(Cl)cc1[N+](=O)[O-] in this assay.
Result: inactive

Q: Returns: the outcome recorded for CCN(CC)CCC(=O)N1C/C(=C/c2ccccc2)C(=O)/C(=C\c2ccccc2)C1 in this assay.
Result: active

Q: Returns: the outcome recorded for COc1ccc(CCN(C)C2CCC(C#N)(c3ccc(OC)c(OC)c3)CC2)cc1OC (configuration not stated) in this assay.
Result: inactive

Q: Returns: the outcome recorded for O=S(=O)(c1cc(Cl)ccc1Cl)N1CCN(c2cccc(Cl)c2)CC1 in this assay.
Result: inactive

Q: Returns: the outcome recorded for CCOC(=O)c1ccc(N2C(=O)/C(=C/c3ccc(N(CCC#N)CCC#N)cc3)N=C2c2cc([N+](=O)[O-])ccc2Cl)cc1 in this assay.
Result: inactive

Q: Returns: the outcome recorded for Clc1ccc(Cc2nc3cc(Cl)ccc3o2)cc1 in this assay.
Result: inactive

Q: Returns: the outcome recorded for O=C1c2ccccc2-c2ccc(/N=[N+](/[O-])c3ccc4c(c3)C(=O)c3ccccc3-4)cc21 in this assay.
Result: inactive

---

System: 786-0
Assay: NCI tumour cell line growth inhibition, 48 h
Active and inactive are the calls of the source. Cut-off read from the data, not from the text of the source: active = GI50 up to about 1.1 µM and inactive = higher.
Select the correct class. Options are true (1) = active, false (0) = inactive and nothing else.

Worked examples, 3 compounds total:
CCOP(=O)(OCC)C(C)(C)OC(=O)NC(F)(F)F : false (0)
O=C1O[C@H]2[C@H](OC(=O)c3cc(O)c(O)c(O)c3)[C@@H](OC(=O)c3cc(O)c(O)c4c3[C@@H]3C1=CC(=O)C(O)(O)C3(O)O4)[C@H](OC(=O)c1cc(O)c(O)c(O)c1)O[C@@H]2COC(=O)c1cc(O)c(O)c(O)c1 (some centres undefined) [TERCHEBIN] : false (0)
COc1ccc(/C=C\c2cc(OC)c(OC)c(OC)c2)cc1OC(=O)NCCN(C)C : true (1)

Q: Returns: the outcome recorded for Cc1n[nH]c(=O)n1/N=C/c1ccc(Cl)cc1 in this assay.
Result: false (0)
